Data origin, for the record: patent US20260124201A1

- test-target: human OX2R (Homo sapiens)
- Construct: expressed in transfected cells
- Sequence (O43614 whole entry): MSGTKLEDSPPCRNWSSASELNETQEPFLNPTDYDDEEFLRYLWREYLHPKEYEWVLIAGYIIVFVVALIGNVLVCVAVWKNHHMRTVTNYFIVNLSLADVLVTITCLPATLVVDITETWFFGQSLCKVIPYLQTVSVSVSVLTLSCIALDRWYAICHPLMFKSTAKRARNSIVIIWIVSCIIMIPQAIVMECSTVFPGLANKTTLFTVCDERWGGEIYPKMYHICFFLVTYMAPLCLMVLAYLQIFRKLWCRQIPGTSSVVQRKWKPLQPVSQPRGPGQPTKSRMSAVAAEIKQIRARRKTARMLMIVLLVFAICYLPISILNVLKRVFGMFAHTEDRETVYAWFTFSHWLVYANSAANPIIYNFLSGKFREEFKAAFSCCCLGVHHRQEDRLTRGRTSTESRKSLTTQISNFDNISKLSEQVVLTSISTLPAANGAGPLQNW
- assay-text: Measurement of OX2R agonist activity (intracellular calcium concentration change, Fluo4-AM, FDSS 7000)
- Type: cell-based
- test-conditions: compound concentration 10 μM; human OX2R-expressing CHO-K1 cells; 1 μM human orexin A peptide = 100%, medium alone = 0%
metric: Act. (%): activation rate of test substance
Answer format: value, then unit.

Memo: CON(C)C(=O)[C@@]1(Cc2ccc(F)c(-c3cc(F)cc(F)c3)c2)CC[C@H](NS(C)(=O)=O)C1 (relative stereo) [Example 5] , reported Act. (%): activation rate of test substance: 73%

Memo: CN(O)C(=O)[C@@]1(Cc2cccc(-c3ncccn3)c2)CC[C@H](NS(C)(=O)=O)C1 (relative stereo) [Example 30] , reported Act. (%): activation rate of test substance: 48%

Memo: CCN(C)C(=O)[C@@]1(Cc2cccc(-c3ncccn3)c2)CC[C@H](NS(C)(=O)=O)C1 (relative stereo) [Example 28] , reported Act. (%): activation rate of test substance: 92%

Memo: CON(C)C(=O)[C@@]1(Cc2cccc(-c3cscn3)c2)CC[C@H](NS(C)(=O)=O)C1 (relative stereo) [Example 16] , reported Act. (%): activation rate of test substance: 91%

Memo: CON(C)C(=O)[C@@]1(Cc2cccc(-c3ccccc3C#N)c2)CC[C@H](NS(C)(=O)=O)C1 (relative stereo) [Example 10] , reported Act. (%): activation rate of test substance: 41%

Memo: CON(C)C(=O)[C@@]1(Cc2cccc(-c3ncc(N(C)C)cn3)c2)CC[C@H](NS(C)(=O)=O)C1 (relative stereo) [Example 21] , reported Act. (%): activation rate of test substance: 48%

Memo: CCS(=O)(=O)N[C@H]1CC[C@](Cc2ccc(F)c(-c3ncc(F)cn3)c2)(C(=O)N(C)OC)C1 [Example 52] , reported Act. (%): activation rate of test substance: 99%

Memo: CON(C)C(=O)[C@@]1(Cc2ccc(F)c(-c3ncc(C)cn3)c2)CC[C@H](NS(C)(=O)=O)C1 (relative stereo) [Example 24] , reported Act. (%): activation rate of test substance: 83%

Memo: C=CS(=O)(=O)N[C@H]1CC[C@](Cc2ccc(F)c(-c3ncc(F)cn3)c2)(C(=O)N(C)OC)C1 [Example 53] , reported Act. (%): activation rate of test substance: 106%

Memo: CCNC(=O)[C@@]1(Cc2cccc(-c3ccccc3)c2)CC[C@H](NS(C)(=O)=O)C1 (relative stereo) [Example 1] , reported Act. (%): activation rate of test substance: 50%

Memo: CON(C)C(=O)[C@@]1(Cc2ccc(F)c(-c3ccc(F)cc3)c2)CC[C@H](NS(C)(=O)=O)C1 (relative stereo) [Example 4] , reported Act. (%): activation rate of test substance: 82%

Memo: CON(C)C(=O)[C@]1(Cc2cccc(-c3ncc(F)cn3)c2)C[C@@H](NS(C)(=O)=O)C(F)(F)C1 [Example 66] , reported Act. (%): activation rate of test substance: 95%

Memo: COc1cnc(-c2cccc(C[C@]3(C(=O)N(C)OC)CC[C@H](NS(C)(=O)=O)C3)c2)nc1 (relative stereo) [Example 20] , reported Act. (%): activation rate of test substance: 75%

Memo: CON(C)C(=O)[C@@]1(Cc2cccc(-c3ncc(F)cn3)c2)C[C@H](F)[C@H](NS(C)(=O)=O)C1 [Example 57] , reported Act. (%): activation rate of test substance: 92%

Memo: CON(C)C(=O)[C@]1(Cc2cccc(-c3ncc(F)cn3)c2)C[C@@H](NS(=O)(=O)N(C)C)C(F)(F)C1 (relative stereo) [Example 41] , reported Act. (%): activation rate of test substance: 93%

Memo: CON(C)C(=O)[C@@]1(Cc2cccc(-c3ncc(Cl)cn3)c2)CC[C@H](NS(C)(=O)=O)C1 (relative stereo) [Example 15] , reported Act. (%): activation rate of test substance: 86%

Memo: CON(C)C(=O)[C@@]1(Cc2cccc(-c3nc(C)co3)c2)CC[C@H](NS(C)(=O)=O)C1 (relative stereo) [Example 13] , reported Act. (%): activation rate of test substance: 90%

Memo: CON(C)C(=O)[C@@]1(Cc2cccc(-c3ccccc3O)c2)CC[C@H](NS(C)(=O)=O)C1 (relative stereo) [Example 11] , reported Act. (%): activation rate of test substance: 71%

Memo: CNS(=O)(=O)N[C@H]1CC[C@](Cc2cccc(-c3ccccc3)c2)(C(=O)N(C)OC)C1 (relative stereo) [Example 6] , reported Act. (%): activation rate of test substance: 92%

Memo: CON(C)C(=O)[C@@]1(Cc2cccc(-c3ncc(F)cn3)c2)C[C@H](F)[C@H](NS(=O)(=O)N(C)C)C1 (relative stereo) [Example 35] , reported Act. (%): activation rate of test substance: 92%

Memo: CS(=O)(=O)N[C@H]1CC[C@](Cc2cccc(-c3ccccc3)c2)(C(=O)N2CCC(F)(F)C2)C1 (relative stereo) [Example 75] , reported Act. (%): activation rate of test substance: 23%

Memo: CON(C)C(=O)[C@@]1(Cc2ccc(F)c(-c3ncc(F)cn3)c2)CC[C@H](NS(=O)(=O)CF)C1 [Example 50] , reported Act. (%): activation rate of test substance: 110%

Memo: COc1ccc(C[C@]2(C(=O)N(C)OC)CC[C@H](NS(C)(=O)=O)C2)cc1-c1ncc(F)cn1 [Example 56] , reported Act. (%): activation rate of test substance: 51%

Memo: CO[C@@H]1C[C@](Cc2cccc(-c3ncc(F)cn3)c2)(C(=O)N(C)OC)C[C@H]1NS(C)(=O)=O [Example 68] , reported Act. (%): activation rate of test substance: 91%

Memo: CON(C)C(=O)[C@@]1(Cc2cc(-c3ncccn3)ccc2F)C[C@H](F)[C@H](NS(=O)(=O)C(F)(F)F)C1 (relative stereo) [Example 38] , reported Act. (%): activation rate of test substance: 93%

Memo: CON(C)C(=O)C1(Cc2cccc(-c3ncccn3)c2)CCC(NS(C)(=O)=O)C1 (single isomer, unassigned) [Example 47] , reported Act. (%): activation rate of test substance: 52%
